# protocol details: pharmacokinetics after intravenous administration to rats
# experimental parameters: in vivo, rat, read-out: systemic clearance
measured endpoint: clearance

Reported clearance, compound CC(C)C[C@@H](CC(=O)O)NC(=O)C[C@H](C)NC(=O)C[C@H](CCCCN)NC(=O)C[C@H](CC(C)C)NC(=O)C[C@H](C)NC(=O)C[C@H](CCCCN)NC(=O)C[C@H](C)N : ____ ~15 mL/min/kg

* * *

# protocol details: pharmacokinetics after intravenous administration to rats
# experimental parameters: in vivo, rat, read-out: volume of distribution
measured endpoint: Vd

Reported Vd, molecule CC(C)C[C@@H](CC(=O)O)NC(=O)C[C@H](C)NC(=O)C[C@H](CCCCN)NC(=O)C[C@H](CC(C)C)NC(=O)C[C@H](C)NC(=O)C[C@H](CCCCN)NC(=O)C[C@H](C)N : ____ ~2 L/kg

* * *

# protocol details: oral bioavailability in the rat
# experimental parameters: in vivo, read-out: absolute oral bioavailabilty
measured endpoint: bioavailability

Reported bioavailability, compound CC(C)C[C@@H](CC(=O)O)NC(=O)C[C@H](C)NC(=O)C[C@H](CCCCN)NC(=O)C[C@H](CC(C)C)NC(=O)C[C@H](C)NC(=O)C[C@H](CCCCN)NC(=O)C[C@H](C)N : ____ ~1%

These measurements were taken from patent US6617425B1.
